- MEASURED_ON: Hepatocyte growth factor receptor (Homo sapiens) (UniProt P08581)
- Sequence (P08581 whole entry): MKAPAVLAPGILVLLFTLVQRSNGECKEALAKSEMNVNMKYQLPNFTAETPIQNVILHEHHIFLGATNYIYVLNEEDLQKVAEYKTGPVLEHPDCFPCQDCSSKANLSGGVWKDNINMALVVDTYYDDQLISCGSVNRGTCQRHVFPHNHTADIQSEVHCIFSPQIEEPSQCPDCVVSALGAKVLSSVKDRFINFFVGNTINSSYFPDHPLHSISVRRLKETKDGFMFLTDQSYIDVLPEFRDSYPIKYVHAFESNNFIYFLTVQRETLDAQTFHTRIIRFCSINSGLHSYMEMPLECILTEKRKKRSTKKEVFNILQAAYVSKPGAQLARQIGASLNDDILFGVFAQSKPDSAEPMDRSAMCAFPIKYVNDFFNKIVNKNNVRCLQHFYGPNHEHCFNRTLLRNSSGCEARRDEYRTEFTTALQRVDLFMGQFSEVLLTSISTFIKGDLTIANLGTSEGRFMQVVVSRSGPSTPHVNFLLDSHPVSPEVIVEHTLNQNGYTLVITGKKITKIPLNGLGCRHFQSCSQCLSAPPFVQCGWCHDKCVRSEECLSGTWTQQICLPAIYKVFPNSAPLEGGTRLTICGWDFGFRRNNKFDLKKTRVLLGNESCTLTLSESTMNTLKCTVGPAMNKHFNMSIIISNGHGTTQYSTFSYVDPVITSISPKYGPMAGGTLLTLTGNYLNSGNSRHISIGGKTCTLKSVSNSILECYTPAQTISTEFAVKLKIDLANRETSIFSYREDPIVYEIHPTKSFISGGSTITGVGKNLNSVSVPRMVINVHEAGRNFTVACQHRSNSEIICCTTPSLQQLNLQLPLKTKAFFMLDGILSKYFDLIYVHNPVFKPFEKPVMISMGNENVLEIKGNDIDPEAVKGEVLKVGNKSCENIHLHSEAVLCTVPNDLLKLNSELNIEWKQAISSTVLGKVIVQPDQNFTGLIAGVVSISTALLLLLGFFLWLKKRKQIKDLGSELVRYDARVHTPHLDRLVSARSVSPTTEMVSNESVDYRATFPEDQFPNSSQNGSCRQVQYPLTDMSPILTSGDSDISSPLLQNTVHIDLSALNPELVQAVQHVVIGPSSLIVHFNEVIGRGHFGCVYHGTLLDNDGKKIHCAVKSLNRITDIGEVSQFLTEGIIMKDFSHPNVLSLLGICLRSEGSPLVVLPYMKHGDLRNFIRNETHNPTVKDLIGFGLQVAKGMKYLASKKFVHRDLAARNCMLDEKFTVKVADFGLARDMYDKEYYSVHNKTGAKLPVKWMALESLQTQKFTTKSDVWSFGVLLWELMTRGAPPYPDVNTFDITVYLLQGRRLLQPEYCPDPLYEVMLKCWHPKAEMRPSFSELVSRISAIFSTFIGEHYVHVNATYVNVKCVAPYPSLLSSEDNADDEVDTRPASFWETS
- CONDITION_CONTEXT: at 1 µM;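 further: each value is an averaged inhibition figure for MET, taken as the mean across measurements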
Consider the following compounds and their measured inhibition readings.
REPORTED_PROPERTY: inhibition (%)

1. COc1ccc2cc(-c3c(-c4ccncc4)nc(-c4ccc([S+](C)[O-])cc4C)n3C)ccc2c1 (stereo not given) = 3.32
2. COc1cccc(-n2cnc3c(N/N=C/c4ccncc4)ncnc32)c1 = 6.87
3. C#Cc1cccc(Nc2ncnc3ccc(OCCCCNCCS(C)(=O)=O)cc23)c1 = 8.4
4. O=C(Nc1n[nH]c2cc(-c3ccccc3)ccc12)C1CC1 = 5.86
5. O=C1NC(=O)C(c2cccc(Cl)c2)=C1Nc1ccc(Cl)c(C(=O)O)c1 = 3.65
6. CN1CCN(CCCNc2nc3ccc(Oc4ccc(NC(=O)Nc5cc(C(F)(F)F)ccc5F)cc4)cc3[nH]2)CC1 = 8.95
7. COC(=O)Nc1nc2ccc(Sc3ccc(NC(=O)Nc4cc(C(F)(F)F)ccc4F)cc3)cc2[nH]1 = 36.2
8. FC(F)(F)c1cccc(Nc2nccc(-c3cnn4nc(-c5ccccc5)ccc34)n2)c1 = 0.28
9. CCC(=O)Nc1ccc(C)c(-c2ccc(C(=O)NCC3CC3)cc2)c1 = 4.29
10. COc1cc(Nc2ncc3c(C)nc(-c4cccc(Oc5ccccc5)c4)n3n2)cc(OC)c1OC = -0.18
11. CS(=O)(=O)CCNCc1cc(-c2cc3c(Nc4ccc(OCc5cccc(F)c5)c(Cl)c4)ncnc3s2)cs1 = 6.72
12. NC(=O)Cc1ccccc1Oc1nccc(-c2c(-c3ccc(F)cc3)ncn2C2CCNCC2)n1 = 3.24
13. CN(C)c1ccc2c(c1)/C(=C/Nc1ccc(S(N)(=O)=O)cc1)C(=O)N2 = 4.48
14. COc1cc(C)c(N(C)C(=O)CN(C)C)cc1Nc1nc(Nc2cccc(F)c2C(N)=O)c2cc[nH]c2n1 = 1.68
15. C[C@@H](Oc1cc(-n2cnc3ccc(OCC4CCN(C)CC4)cc32)sc1C(N)=O)c1ccccc1Cl = 9.62
16. O=C1Nc2ccc(I)cc2C1=Cc1cc(Br)c(O)c(Br)c1 = 4.15
17. Cc1ccc(NC(=O)c2ccoc2)cc1-c1ccc(C(=O)NCC2CC2)cc1 = 0.85
18. NCc1ccc(-n2c(-c3nonc3N)nc3cnccc32)cc1 = 9.91
19. CN(c1ccc(NC(=O)Nc2c(Cl)cccc2Cl)cc1)c1ccnc(Nc2cccc(CS(C)(=O)=O)c2)n1 = 85
20. O=C(Nc1n[nH]c2nc(-c3ccc(O)cc3)c(Br)cc12)C1CC1 = 10.9
